ASSAY_NAME: Physicochemical properties of compounds (pKa, logP)
CONDITION_SUMMARY: internal data
Where a name gives a salt, the structure may show the parent alone.
ASSAY_METRIC: pKa

compound="CCN(CC)CCOC(=O)C(Cc1cccc2ccccc12)CC1CCCO1 (stereo not shown) [NF, Naftidrofuryl oxalate]" assay_metric=pKa reported=4.1
